Entry source: patent US20250136581A1

system.name: α5-GABAA receptor (α5, β3, γ2 subunits) (Homo sapiens (Human), UniProt P18507+P31644)
Sequence (P31644 32-462): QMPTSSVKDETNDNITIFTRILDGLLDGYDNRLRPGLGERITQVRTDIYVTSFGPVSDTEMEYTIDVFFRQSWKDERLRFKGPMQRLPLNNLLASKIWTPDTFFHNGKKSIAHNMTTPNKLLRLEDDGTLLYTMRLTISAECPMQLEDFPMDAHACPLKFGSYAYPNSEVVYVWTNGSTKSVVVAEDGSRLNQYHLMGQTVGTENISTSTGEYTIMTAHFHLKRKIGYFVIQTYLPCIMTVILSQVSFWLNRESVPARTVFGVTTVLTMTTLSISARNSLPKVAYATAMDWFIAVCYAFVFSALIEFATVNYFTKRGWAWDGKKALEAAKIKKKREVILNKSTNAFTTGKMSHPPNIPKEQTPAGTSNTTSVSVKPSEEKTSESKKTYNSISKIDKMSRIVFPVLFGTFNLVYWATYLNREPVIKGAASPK
Sequence (P28472 26-473 partner): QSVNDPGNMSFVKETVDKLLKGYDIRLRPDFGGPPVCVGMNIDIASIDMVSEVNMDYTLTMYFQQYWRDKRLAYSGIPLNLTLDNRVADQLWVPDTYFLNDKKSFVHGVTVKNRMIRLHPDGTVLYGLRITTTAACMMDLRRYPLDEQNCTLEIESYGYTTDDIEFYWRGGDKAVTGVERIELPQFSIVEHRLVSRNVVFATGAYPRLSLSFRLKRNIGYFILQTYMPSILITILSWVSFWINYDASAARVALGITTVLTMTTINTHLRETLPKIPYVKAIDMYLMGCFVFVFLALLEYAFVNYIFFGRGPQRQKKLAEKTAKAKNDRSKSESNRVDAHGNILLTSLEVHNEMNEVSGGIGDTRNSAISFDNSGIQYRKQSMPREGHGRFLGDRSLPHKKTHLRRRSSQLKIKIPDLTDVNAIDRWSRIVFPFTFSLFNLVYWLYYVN
Sequence (P18507 other isoform, or with tags, fused parts or gaps): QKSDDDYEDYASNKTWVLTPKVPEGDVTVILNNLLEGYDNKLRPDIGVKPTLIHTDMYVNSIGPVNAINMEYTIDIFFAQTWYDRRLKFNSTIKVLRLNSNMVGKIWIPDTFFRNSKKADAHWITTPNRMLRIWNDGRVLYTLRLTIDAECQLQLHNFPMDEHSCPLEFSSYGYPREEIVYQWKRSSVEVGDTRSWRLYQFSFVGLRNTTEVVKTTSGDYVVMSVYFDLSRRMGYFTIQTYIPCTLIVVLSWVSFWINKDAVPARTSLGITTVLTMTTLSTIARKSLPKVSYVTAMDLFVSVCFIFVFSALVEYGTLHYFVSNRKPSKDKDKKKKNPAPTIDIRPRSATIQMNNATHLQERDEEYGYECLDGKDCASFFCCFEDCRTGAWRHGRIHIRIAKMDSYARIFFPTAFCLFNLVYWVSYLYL
protocol.notes: Whole cell patch clamp, inverse agonist efficacy in HEK293 cells expressing α5-GABAA receptor
Format: cell-based
measurement.setup: HEK293, drug 100 nM, GABA 0.05 μM, −60 mV; read-out: Compound inverse agonist efficacy %
assay.metric: inhibition at 0.1 µM (%)

Query: // map COc1cc(N2CCNC(=O)C2)nnc1OCc1c(C)nnn1-c1ccc(C(F)F)cc1 to recorded inhibition at 0.1 µM (system: α5-GABAA receptor (α5, β3, γ2 subunits) (Homo sapiens (Human), UniProt P18507+P31644))
Result: 45.7

Query: // map Cc1nnn(-c2ccc(C(F)F)cc2)c1COc1ccc(N2CCN3[C@@H]4CCC[C@@H]4NC(=O)[C@@H]3C2)nn1 to recorded inhibition at 0.1 µM (system: α5-GABAA receptor (α5, β3, γ2 subunits) (Homo sapiens (Human), UniProt P18507+P31644))
Result: 52.4

Query: // map Cc1nnn(-c2ccc(C(F)F)cc2)c1COc1ccc(N2CC(=O)N3CCOC[C@H]3C2)nn1 to recorded inhibition at 0.1 µM (system: α5-GABAA receptor (α5, β3, γ2 subunits) (Homo sapiens (Human), UniProt P18507+P31644))
Result: 50.8

Query: // map Cc1nnn(-c2ccc(C(F)F)cc2)c1COc1ccc(N2CCN(C3CC3)C(=O)C2)nn1 to recorded inhibition at 0.1 µM (system: α5-GABAA receptor (α5, β3, γ2 subunits) (Homo sapiens (Human), UniProt P18507+P31644))
Result: 52.2

Query: // map Cc1nnn(-c2ccc(C(F)F)cc2)c1COc1ccc(N2CCN3CC(C4CC4)NC(=O)[C@@H]3C2)nn1 (single isomer, unassigned) to recorded inhibition at 0.1 µM (system: α5-GABAA receptor (α5, β3, γ2 subunits) (Homo sapiens (Human), UniProt P18507+P31644))
Result: 50.8

Query: // map Cc1nnn(-c2ccc(F)cc2)c1COc1ccc(N2CCNC(=O)C2)nn1 to recorded inhibition at 0.1 µM (system: α5-GABAA receptor (α5, β3, γ2 subunits) (Homo sapiens (Human), UniProt P18507+P31644))
Result: 45.3

Query: // map Cc1nnn(-c2ccc(C(F)F)cc2)c1COc1ccc(N2CC3COCCN3C2=O)nn1 (stereo not shown) to recorded inhibition at 0.1 µM (system: α5-GABAA receptor (α5, β3, γ2 subunits) (Homo sapiens (Human), UniProt P18507+P31644))
Result: 40.3

Query: // map Cc1nnn(-c2ccc(C(F)F)cc2)c1COc1ccc(N2CCN3CC(C(C)C)NC(=O)[C@@H]3C2)nn1 (stereo partly shown) to recorded inhibition at 0.1 µM (system: α5-GABAA receptor (α5, β3, γ2 subunits) (Homo sapiens (Human), UniProt P18507+P31644))
Result: 60.1

Query: // map N#Cc1nnn(-c2ccc(C(F)F)cc2)c1COc1ccc(N2CCNC(=O)C2)nn1 to recorded inhibition at 0.1 µM (system: α5-GABAA receptor (α5, β3, γ2 subunits) (Homo sapiens (Human), UniProt P18507+P31644))
Result: 43.7

Query: // map Cc1nnn(-c2ccc(C(F)F)cc2)c1COc1ccc(N2CCN3CCN(C)C(=O)[C@@H]3C2)nn1 to recorded inhibition at 0.1 µM (system: α5-GABAA receptor (α5, β3, γ2 subunits) (Homo sapiens (Human), UniProt P18507+P31644))
Result: 49.2

Query: // map O=C1NCCN2CCN(c3ccc(OCc4c(Cl)nnn4-c4ccc(C(F)F)cc4)nn3)C[C@@H]12 to recorded inhibition at 0.1 µM (system: α5-GABAA receptor (α5, β3, γ2 subunits) (Homo sapiens (Human), UniProt P18507+P31644))
Result: 51.2

Query: // map Cc1nnn(-c2ccc(C(F)F)cc2)c1COc1ccc(N2CC(C(=O)Nc3cnn(C)c3)C2)nn1 to recorded inhibition at 0.1 µM (system: α5-GABAA receptor (α5, β3, γ2 subunits) (Homo sapiens (Human), UniProt P18507+P31644))
Result: 49.6

Query: // map Cc1nnn(-c2ccc(C(F)F)cc2)c1COc1ccc(N2CC(C(=O)NC3CC3)C2)nn1 to recorded inhibition at 0.1 µM (system: α5-GABAA receptor (α5, β3, γ2 subunits) (Homo sapiens (Human), UniProt P18507+P31644))
Result: 49.6

Query: // map Cc1nnn(-c2ccc(C(F)F)cc2)c1COc1ccc(N2CCNC2=O)nn1 to recorded inhibition at 0.1 µM (system: α5-GABAA receptor (α5, β3, γ2 subunits) (Homo sapiens (Human), UniProt P18507+P31644))
Result: 53.7

Query: // map Cc1nnn(-c2ccc(C(F)F)cc2)c1COc1ccc(N2CC(C(=O)N3CCCC(O)C3)C2)nn1 (stereo not shown) to recorded inhibition at 0.1 µM (system: α5-GABAA receptor (α5, β3, γ2 subunits) (Homo sapiens (Human), UniProt P18507+P31644))
Result: 46.6

Query: // map O=C1CN(c2ccc(OCc3c(Cl)nnn3-c3ccc(F)cc3)nn2)CCN1 to recorded inhibition at 0.1 µM (system: α5-GABAA receptor (α5, β3, γ2 subunits) (Homo sapiens (Human), UniProt P18507+P31644))
Result: 42.1
